Experiment: Pharmacokinetics of intraperitoneal or intravenous injection in CD1 mice (plasma, LC/MS/MS)
Type: in vivo
Conditions: male, CD1, mouse, plasma, iv, 1 mg/kg, IV 1.0 mg/kg, 8 h, read-out: Conc. Mean

# compound structure, display unit, concentration at 8 h
rows = [
    ("COc1cc2c(Oc3ccc(NC(=O)C4(C(=O)Nc5ccc(F)cc5)CC4)cc3F)ccnc2cc1OCCCOCCCOCCC(=O)N[C@H](C(=O)N1C[C@H](O)C[C@H]1C(=O)NCc1ccc(-c2scnc2C)cc1)C(C)(C)C", "ng/mL", 8.6),
]

###

Experiment: Pharmacokinetics of intraperitoneal or intravenous injection in CD1 mice (plasma, LC/MS/MS)
Format: in vivo
Details: male, CD1, mouse, plasma, iv, 1 mg/kg, IV 1.0 mg/kg, 0.5 h, read-out: Conc. Mouse 3

# compound structure, concentration at 0.5 h (ng/mL)
rows = [
    ("COc1cc2c(Oc3ccc(NC(=O)C4(C(=O)Nc5ccc(F)cc5)CC4)cc3F)ccnc2cc1OCCCOCCCOCCC(=O)N[C@H](C(=O)N1C[C@H](O)C[C@H]1C(=O)NCc1ccc(-c2scnc2C)cc1)C(C)(C)C", 413),
]

###

Assay: Pharmacokinetics of intraperitoneal or intravenous injection in CD1 mice (plasma, LC/MS/MS)
Type: in vivo
Settings: male, CD1, mouse, plasma, iv, 1 mg/kg, IV 1.0 mg/kg, 0.083 h, read-out: Conc. Mouse 2
observed property: concentration at 0.083 h (ng/mL)

# compound structure, display unit, readout number
rows = [
    ("COc1cc2c(Oc3ccc(NC(=O)C4(C(=O)Nc5ccc(F)cc5)CC4)cc3F)ccnc2cc1OCCCOCCCOCCC(=O)N[C@H](C(=O)N1C[C@H](O)C[C@H]1C(=O)NCc1ccc(-c2scnc2C)cc1)C(C)(C)C", "ng/mL", 1810),
]

###

Parameter DC50: see the listing below.
Target: p38α (Homo sapiens)
Construct: selectively degrades p38α, whereas exemplary PROTAC 46 (10-atom linker, phenyl attachment) selectively degrades p38δ in MDA-MB-231 cells; endogenous in cells; host or cells: MDA-MB-231
Sequence (Q16539 whole entry): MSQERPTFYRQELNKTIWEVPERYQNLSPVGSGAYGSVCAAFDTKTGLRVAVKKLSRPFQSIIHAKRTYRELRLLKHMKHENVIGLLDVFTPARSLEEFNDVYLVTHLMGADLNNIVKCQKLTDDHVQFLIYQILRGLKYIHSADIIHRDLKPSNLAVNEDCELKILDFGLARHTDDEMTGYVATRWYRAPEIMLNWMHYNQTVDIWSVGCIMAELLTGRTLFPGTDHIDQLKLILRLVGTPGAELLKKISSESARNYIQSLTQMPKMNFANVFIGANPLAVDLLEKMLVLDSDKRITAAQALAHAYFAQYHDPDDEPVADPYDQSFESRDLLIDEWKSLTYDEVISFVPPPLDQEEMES
Experiment: Western blot survey of p38 isoform degradation in MDA-MB-231 cells (incl. proteasome rescue, CHX chase, washout)
Format: cell-based
Conditions: MDA-MB-231 cells, western blot; read-out: p38α DC50 (concentration at which half-maximal degradation is achieved)
observed property: DC50 (nM)

# compound structure, subject of test, display unit, readout number
rows = [
    ("COc1cc2c(Oc3ccc(NC(=O)C4(C(=O)Nc5ccc(F)cc5)CC4)cc3F)ccnc2cc1OCCOCCOCCC(=O)N[C@H](C(=O)N1C[C@H](O)C[C@H]1C(=O)NCc1ccc(-c2scnc2C)cc1)C(C)(C)C", "p38α (Homo sapiens)", "nM", 40.1),
    ("COc1cc2c(Oc3ccc(NC(=O)C4(C(=O)Nc5ccc(F)cc5)CC4)cc3F)ccnc2cc1OCCCOCCOCCC(=O)N[C@H](C(=O)N1C[C@H](O)C[C@H]1C(=O)NCc1ccc(-c2scnc2C)cc1)C(C)(C)C", "p38α (Homo sapiens)", "nM", 18.8),
    ("COc1cc2c(Oc3ccc(NC(=O)C4(C(=O)Nc5ccc(F)cc5)CC4)cc3F)ccnc2cc1OCCCOCCCOCCC(=O)N[C@H](C(=O)N1C[C@H](O)C[C@H]1C(=O)NCc1ccc(-c2scnc2C)cc1)C(C)(C)C", "p38α (Homo sapiens)", "nM", 230),
    ("COc1cc2c(Oc3ccc(NC(=O)C4(C(=O)Nc5ccc(F)cc5)CC4)cc3F)ccnc2cc1OCCCCOCCCCOCC(=O)N[C@H](C(=O)N1C[C@H](O)C[C@H]1C(=O)NCc1ccc(-c2scnc2C)cc1)C(C)(C)C", "p38α (Homo sapiens)", "nM", 9.5),
]
